Test: shake flask on a mixture of 185; loss from the water phase only; LC-Orbitrap peak areas
Conditions: room
Overview of recorded log partition oleylalcohol / HPLC water, unbuffered, traces of methanol / DMSO for various molecules
outcome measure: log partition oleylalcohol / HPLC water, unbuffered, traces of methanol / DMSO (log10)

molecule: c1ccc2[nH]c(-c3cscn3)nc2c1
unit symbol: log10
recorded measurement: 1.762
--
molecule: COC(=O)c1sccc1S(N)(=O)=O
unit symbol: log10
recorded measurement: 0.8181
--
molecule: NC(=O)Nc1ccc(Cl)cc1
unit symbol: log10
recorded measurement: 0.6552
--
molecule: C=C(C)C(=O)OCCOCCOC(=O)C(=C)C
unit symbol: log10
recorded measurement: 0.1237
--
molecule: O=C(OC1CCCCC1)c1ccccc1C(=O)OC1CCCCC1
unit symbol: log10
recorded measurement: -0.79
--
molecule: c1ccc(CCCc2ccncc2)cc1
unit symbol: log10
recorded measurement: -0.2233
--
molecule: O=C1C=CC(=O)N1c1ccc(Cc2ccc(N3C(=O)C=CC3=O)cc2)cc1
unit symbol: log10
recorded measurement: -0.3131
--
molecule: O=P(OC(CCl)CCl)(OC(CCl)CCl)OC(CCl)CCl
unit symbol: log10
recorded measurement: 0.1893
--
molecule: Cc1oncc1C(=O)Nc1ccc(C(F)(F)F)cc1
unit symbol: log10
recorded measurement: 1.068
--
molecule: FC(F)C(F)(F)OCC(Cn1cncn1)c1ccc(Cl)cc1Cl (stereo not shown)
unit symbol: log10
recorded measurement: 0.4709
--
molecule: Cn1cnc([N+](=O)[O-])c1Sc1ncnc2nc[nH]c12
unit symbol: log10
recorded measurement: 0.1703
--
molecule: CCNC(=O)C1CC(C)CCC1C(C)C (stereo not shown)
unit symbol: log10
recorded measurement: -0.02549
--
molecule: CCCCNC(=S)NCCCC
unit symbol: log10
recorded measurement: 0.9527
--
molecule: CCCCC(CC)COC(=O)c1ccccc1C(=O)O (stereo not shown)
unit symbol: log10
recorded measurement: -0.5168
--
molecule: O=C(c1ccccc1)c1ccc(O)cc1O
unit symbol: log10
recorded measurement: 1.444
--
molecule: COC(=O)C(C)N(C(=O)c1ccco1)c1c(C)cccc1C (stereo not shown)
unit symbol: log10
recorded measurement: 1.315
